- System: WT MEF EVs
- procedureText: Quantitative LC-MS/MS proteomics of EVs from ISRIB-treated WT MEF cultures
- Type: cell-based, mouse
- Parameters: key: YES = protein abundance effect similar to DYT/WT
- runConditions: EV protein abundance, WT + ISRIB vs WT, direction compared with DYT/WT
assayEndpoint: ISRIB and DYT Parallel Direction

>>> measurement("Nif3l1 (protein, UniProt Q9EQ80 1-376, looked up) NIF3-like protein 1: MLSSAHLVPTSVQRAQSWICRSSRSFMDLKALLSSLNDFASLSFAESWDNVGLLVEPSPPHTVNTLFLTNDLTEEVMDEALQKKADFILSYHPPIFRPMKHITWKTWKECLVIRALENRVAVYSPHTAYDAAPQGVNSWLAKGLGTCTTRPIHPSRAPDYPTEGAHRLEFSVNRSQDLDKVMSTLRGVGGVSVTSFPARCDGEEQTRISLNCTQKTLMQVLAFLSQDRQLYQKTEILSLEKPLLLHTGMGRLCTLDESVSLAIMIERIKTHLKLSHLRLALGVGRTLESQVKVVALCAGSGGSVLQGVEADLYLTGEMSHHDVLDAASKGINVILCEHSNTERGFLSELQEMLGVHFENKINIILSETDRDPLRVV")
"YES"
>>> measurement("Spr (protein, UniProt P35270 1-261, looked up) Sepiapterin reductase: MEGGLGRAVCLLTGASRGFGRTLAPLLASLLSPGSVLVLSARNDEALRQLEAELGAERSGLRVVRVPADLGAEAGLQQLLGALRELPRPKGLQRLLLINNAGSLGDVSKGFVDLSDSTQVNNYWALNLTSMLCLTSSVLKAFPDSPGLNRTVVNISSLCALQPFKGWALYCAGKAARDMLFQVLALEEPNVRVLNYAPGPLDTDMQQLARETSVDPDMRKGLQELKAKGKLVDCKVSAQKLLSLLEKDEFKSGAHVDFYDK")
"YES"
